tgt: rat adrenergic α1B receptor obtained from Wistar Rat liver (Rattus norvegicus)
Construct: rat adrenergic α1B receptor obtained from Wistar Rat liver; from tissue; host or cells: Wistar rat liver
measurement-notes: Adrenergic α1B radioligand binding assay ([3H]Prazosin)
measurement-conditions: 0.1 μM compound; read-out: Percentage inhibition of ligand binding, Adrenergic α1B
endpoint-name: inhibition at 0.1 µM (%)
Value expressed in %; do not type the unit.

Task: Identify inhibition at 0.1 µM associated with the molecule Cc1cc2c3c(c1)c1c(n3C[C@@](C)(c3ccncc3)O[C@H]2C)CCN(C)C1 [B162]
Result: -6

Task: Identify inhibition at 0.1 µM associated with the molecule Cc1cc(-c2ccc(F)cc2)c2c(c1)c1c(n2C)CCN(C)C1 [A7]
Result: 2

Task: Identify inhibition at 0.1 µM associated with the molecule Cc1cc2c3c(c1)c1c(n3C[C@](C)(c3ccncc3)O[C@H]2C)CCN(C)C1 [B163]
Result: 6

Task: Identify inhibition at 0.1 µM associated with the molecule Cc1ccc(C#Cc2cc(Cl)cc3c4c(n(C)c23)CCN(C)C4)cn1 [A18]
Result: 30

Task: Identify inhibition at 0.1 µM associated with the molecule C#Cc1cc(C)cc2c3c(n(C)c12)CCN(C)C3 [A10]
Result: 11

Task: Identify inhibition at 0.1 µM associated with the molecule Cc1cc2c3c(c1)c1c(n3C(c3ccccc3)C2)CCN(C)C1 (stereo not shown) [B12]
Result: 28

Task: Identify inhibition at 0.1 µM associated with the molecule C/C(=C\c1cc(C)cc2c3c(n(C)c12)CCN(C)C3)c1ccncc1 [A11]
Result: -1

Task: Identify inhibition at 0.1 µM associated with the molecule Cc1cc(-c2ccncc2)c2c(c1)c1c(n2C)CCN(C)C1 [A9]
Result: -9

Task: Identify inhibition at 0.1 µM associated with the molecule Cc1cc(C#Cc2cccs2)c2[nH]c3c(c2c1)CN(C)CC3 [A8]
Result: -3

Task: Identify inhibition at 0.1 µM associated with the molecule Cc1cc2c3c(c1)c1c(n3CC(C)(c3ccc(C)nc3)OC(C)C2)CCN(C)C1 (stereo not shown) [B160]
Result: 2

====

tgt: human recombinant adrenergic α2B receptor (Homo sapiens)
Construct: expressed in transfected cells; host or cells: CHO-K1 cells
Sequence (P18089 whole entry): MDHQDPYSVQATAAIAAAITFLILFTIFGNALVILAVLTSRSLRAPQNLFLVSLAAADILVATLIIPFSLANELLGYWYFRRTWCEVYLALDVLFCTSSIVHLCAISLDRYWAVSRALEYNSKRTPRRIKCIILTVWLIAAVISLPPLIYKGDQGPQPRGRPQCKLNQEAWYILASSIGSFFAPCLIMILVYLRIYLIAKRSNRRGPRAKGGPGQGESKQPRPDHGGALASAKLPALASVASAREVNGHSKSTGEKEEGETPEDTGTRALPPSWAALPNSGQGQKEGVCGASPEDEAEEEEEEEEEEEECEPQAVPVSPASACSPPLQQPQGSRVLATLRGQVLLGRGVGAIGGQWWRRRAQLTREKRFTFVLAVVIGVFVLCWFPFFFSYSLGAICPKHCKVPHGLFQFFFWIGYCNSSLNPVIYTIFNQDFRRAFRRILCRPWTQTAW
measurement-notes: Adrenergic α2B radioligand binding assay ([3H]Rauwolscine)
measurement-conditions: 0.1 μM compound; read-out: Percentage inhibition of ligand binding, Adrenergic α2B
Entry flag: 1 (yes) if inhibition at 0.1 µM reaches 20%; 0 (no) if it does not.

Task: Check this compound for inhibition at 0.1 µM at or above 20%: Cc1ccc(C2Cn3c4c(c5cccc2c53)CN(C)CC4)cn1 (stereo not shown)
Result: 0 (no)

Task: Check this compound for inhibition at 0.1 µM at or above 20%: `Cc1cc(-c2ccc(F)cc2)c2c(c1)c1c(n2C)CCN(C)C1`
Result: 0 (no)

Task: Check this compound for inhibition at 0.1 µM at or above 20%: `C/C(=C\c1cc(C)cc2c3c(n(C)c12)CCN(C)C3)c1ccc(C)nc1`
Result: 1 (yes)

Task: Check this compound for inhibition at 0.1 µM at or above 20%: `Cc1cc(C#Cc2cccs2)c2[nH]c3c(c2c1)CN(C)CC3`
Result: 0 (no)

Task: Check this compound for inhibition at 0.1 µM at or above 20%: `C/C(=C\c1cc(C)cc2c3c(n(C)c12)CCN(C)C3)c1ccncc1`
Result: 0 (no)

Task: Check this compound for inhibition at 0.1 µM at or above 20%: Cc1ccc2c(c1)c1c3n2C(c2ccccc2)=CCC3(C)CN(C)C1 (stereo not shown)
Result: 0 (no)

Task: Check this compound for inhibition at 0.1 µM at or above 20%: `Cc1cc2c3c(c1)c1c(n3C[C@](C)(c3ccncc3)O[C@H]2C)CCN(C)C1`
Result: 0 (no)

Task: Check this compound for inhibition at 0.1 µM at or above 20%: `Cc1cc(/C=C/c2ccc(C)nc2)c2c(c1)c1c(n2C)CCN(C)C1`
Result: 0 (no)

Task: Check this compound for inhibition at 0.1 µM at or above 20%: Cc1cc2c3c(c1)c1c(n3C(c3ccccc3)C2)CCN(C)C1 (stereo not shown)
Result: 1 (yes)

Task: Check this compound for inhibition at 0.1 µM at or above 20%: `Cc1cc2c3c(c1)c1c(n3C[C@@](C)(c3ccncc3)O[C@H]2C)CCN(C)C1`
Result: 1 (yes)

Task: Check this compound for inhibition at 0.1 µM at or above 20%: `Cc1cc(-c2ccncc2)c2c(c1)c1c(n2C)CCN(C)C1`
Result: 0 (no)

Task: Check this compound for inhibition at 0.1 µM at or above 20%: `Cc1cc2c(-c3ccccc3)cn3c4c(c(c1)c23)CN(C)CC4`
Result: 1 (yes)

Task: Check this compound for inhibition at 0.1 µM at or above 20%: `Cc1ccc(C#Cc2cc(Cl)cc3c4c(n(C)c23)CCN(C)C4)cn1`
Result: 1 (yes)

Task: Check this compound for inhibition at 0.1 µM at or above 20%: Cc1cc2c3c(c1)c1c(n3CC(C)(c3ccncc3)OC(C)C2)CCN(C)C1 (stereo not shown)
Result: 1 (yes)

Task: Check this compound for inhibition at 0.1 µM at or above 20%: Cc1ccc2c(c1)c1c3n2CC(c2ccncc2)=CCC3(C)CN(C)C1 (stereo not shown)
Result: 1 (yes)

Task: Check this compound for inhibition at 0.1 µM at or above 20%: `Cc1cc(C#Cc2nccs2)c2[nH]c3c(c2c1)CN(C)CC3`
Result: 0 (no)

Task: Check this compound for inhibition at 0.1 µM at or above 20%: `Cc1cc(CCc2ccc(C)nc2)c2c(c1)c1c(n2C)CCN(C)C1`
Result: 0 (no)

Task: Check this compound for inhibition at 0.1 µM at or above 20%: `Cc1cc(C#Cc2ccc(C)nc2)c2c(c1)c1c(n2C)CCN(C)C1`
Result: 0 (no)

Task: Check this compound for inhibition at 0.1 µM at or above 20%: `C#Cc1cc(C)cc2c3c(n(C)c12)CCN(C)C3`
Result: 0 (no)

Task: Check this compound for inhibition at 0.1 µM at or above 20%: Cc1ccc2c(c1)c1c3n2C(c2ccccc2)CCC3(C)CN(C)C1 (stereo not shown)
Result: 0 (no)

Task: Check this compound for inhibition at 0.1 µM at or above 20%: `Cc1cc(C#Cc2ccncc2)c2c(c1)c1c(n2C)CCN(C)C1`
Result: 1 (yes)

Task: Check this compound for inhibition at 0.1 µM at or above 20%: Cc1cc2c3c(c1)c1c(n3CC(C)(c3ccc(C)nc3)OC(C)C2)CCN(C)C1 (stereo not shown)
Result: 0 (no)

====

tgt: rat adrenergic α1B receptor obtained from Wistar Rat liver (Rattus norvegicus, UniProt P15823)
Construct: rat adrenergic α1B receptor obtained from Wistar Rat liver; from tissue; host or cells: Wistar rat liver
Sequence (P15823 whole entry): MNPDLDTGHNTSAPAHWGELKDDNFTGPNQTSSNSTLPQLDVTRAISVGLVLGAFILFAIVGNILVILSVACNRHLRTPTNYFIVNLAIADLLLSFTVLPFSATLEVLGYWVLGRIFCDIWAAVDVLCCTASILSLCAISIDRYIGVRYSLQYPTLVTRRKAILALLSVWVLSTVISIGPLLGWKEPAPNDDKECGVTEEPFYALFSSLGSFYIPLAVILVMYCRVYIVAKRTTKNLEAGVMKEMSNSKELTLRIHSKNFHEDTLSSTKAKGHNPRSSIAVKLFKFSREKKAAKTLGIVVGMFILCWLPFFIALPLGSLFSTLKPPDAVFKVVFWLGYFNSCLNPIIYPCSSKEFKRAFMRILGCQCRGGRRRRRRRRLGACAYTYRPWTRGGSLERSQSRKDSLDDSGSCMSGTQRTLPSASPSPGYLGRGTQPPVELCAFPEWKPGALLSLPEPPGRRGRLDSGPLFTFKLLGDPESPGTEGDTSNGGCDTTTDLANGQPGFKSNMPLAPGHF
measurement-notes: Adrenergic α1B radioligand binding assay ([3H]Prazosin)
measurement-conditions: 0.1 μM compound; read-out: Percentage inhibition of ligand binding, Adrenergic α1B
Description: To evaluate in radioligand binding assays the activity of compounds of the invention, rat adrenergic α1B receptor obtained from Wistar Rat liver (Garcia-S'ainz, J. et al, Biochem. Biophys. Res. Commun. 186:760, 1992; Michel, A. et al, Br. J. Pharmacol. 98:883, 1989) in a modified Tris-HCl buffer (50 mM Tris-HCl buffer, pH 7.4, 0.5 mM EDTA) was used. […] Receptor proteins were filtered and washed, the filters were then counted to determine [^3H]Prazosin specifically bound. […]
endpoint-name: inhibition at 0.1 µM (%)
Value expressed in %; do not type the unit.

Task: Identify inhibition at 0.1 µM associated with the molecule Cc1cc(CC(O)c2ccncc2)c2c(c1)c1c(n2C)CCN(C)C1 (stereo not drawn)
Result: -3

Task: Identify inhibition at 0.1 µM associated with the molecule `Cc1cc(C#Cc2nccs2)c2[nH]c3c(c2c1)CN(C)CC3`
Result: 1

Task: Identify inhibition at 0.1 µM associated with the molecule Cc1ccc2c(c1)c1c3n2C(c2ccccc2)=CCC3(C)CN(C)C1 (stereo not drawn)
Result: -3

Task: Identify inhibition at 0.1 µM associated with the molecule Cc1cc(CC(O)c2ccncc2)c2[nH]c3c(c2c1)CN(C)CC3 (stereo not drawn)
Result: -1

Task: Identify inhibition at 0.1 µM associated with the molecule `Cc1cc(/C=C/c2ccc(C)nc2)c2c(c1)c1c(n2C)CCN(C)C1`
Result: 0

Task: Identify inhibition at 0.1 µM associated with the molecule `Cc1cc(CCc2ccc(C)nc2)c2c(c1)c1c(n2C)CCN(C)C1`
Result: -9

====

tgt: human recombinant adrenergic α2A receptor (Homo sapiens)
Construct: expressed in transfected cells; host or cells: insect Sf9 cells
Sequence (P08913 1-465): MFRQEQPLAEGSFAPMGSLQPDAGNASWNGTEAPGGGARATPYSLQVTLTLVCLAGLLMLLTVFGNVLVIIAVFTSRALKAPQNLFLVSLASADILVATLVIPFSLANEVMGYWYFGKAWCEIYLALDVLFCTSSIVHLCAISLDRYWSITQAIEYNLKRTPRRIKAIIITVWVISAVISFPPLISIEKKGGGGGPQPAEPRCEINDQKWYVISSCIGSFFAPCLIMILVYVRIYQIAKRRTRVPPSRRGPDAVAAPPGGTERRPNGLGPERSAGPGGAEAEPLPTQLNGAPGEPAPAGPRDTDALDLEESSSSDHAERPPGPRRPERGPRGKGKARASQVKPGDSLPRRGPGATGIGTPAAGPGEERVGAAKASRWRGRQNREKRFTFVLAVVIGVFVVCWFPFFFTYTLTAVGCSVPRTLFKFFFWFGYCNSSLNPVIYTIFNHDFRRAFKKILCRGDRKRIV
measurement-notes: Adrenergic α2A radioligand binding assay ([3H]MK-912)
measurement-conditions: 0.1 μM compound; read-out: Percentage inhibition of ligand binding, Adrenergic α2A
endpoint-name: inhibition at 0.1 µM (%)
Value expressed in %; do not type the unit.

Task: Write inhibition at 0.1 µM of `Cc1cc(C#Cc2ccncc2)c2c(c1)c1c(n2C)CCN(C)C1` ; system used: human recombinant adrenergic α2A receptor (Homo sapiens)
Result: 14

Task: Write inhibition at 0.1 µM of Cc1ccc2c(c1)c1c3n2C(c2ccccc2)CCC3(C)CN(C)C1 (stereo not shown) ; system used: human recombinant adrenergic α2A receptor (Homo sapiens)
Result: 5

Task: Write inhibition at 0.1 µM of Cc1cc2c3c(c1)c1c(n3C(c3ccccc3)C2)CCN(C)C1 (stereo not shown) ; system used: human recombinant adrenergic α2A receptor (Homo sapiens)
Result: 75

Task: Write inhibition at 0.1 µM of `C#Cc1cc(C)cc2c3c(n(C)c12)CCN(C)C3` ; system used: human recombinant adrenergic α2A receptor (Homo sapiens)
Result: 23

Task: Write inhibition at 0.1 µM of Cc1ccc2c(c1)c1c3n2CC(c2ccncc2)=CCC3(C)CN(C)C1 (stereo not shown) ; system used: human recombinant adrenergic α2A receptor (Homo sapiens)
Result: 8

Task: Write inhibition at 0.1 µM of `Cc1ccc(C#Cc2cc(Cl)cc3c4c(n(C)c23)CCN(C)C4)cn1` ; system used: human recombinant adrenergic α2A receptor (Homo sapiens)
Result: 6

Task: Write inhibition at 0.1 µM of `Cc1cc(CCc2ccc(C)nc2)c2c(c1)c1c(n2C)CCN(C)C1` ; system used: human recombinant adrenergic α2A receptor (Homo sapiens)
Result: -12

Task: Write inhibition at 0.1 µM of `Cc1cc(C#Cc2nccs2)c2[nH]c3c(c2c1)CN(C)CC3` ; system used: human recombinant adrenergic α2A receptor (Homo sapiens)
Result: 31

Task: Write inhibition at 0.1 µM of `C/C(=C\c1cc(C)cc2c3c(n(C)c12)CCN(C)C3)c1ccc(C)nc1` ; system used: human recombinant adrenergic α2A receptor (Homo sapiens)
Result: 20

Task: Write inhibition at 0.1 µM of `Cc1cc(C#Cc2ccc(C)nc2)c2c(c1)c1c(n2C)CCN(C)C1` ; system used: human recombinant adrenergic α2A receptor (Homo sapiens)
Result: -4

Task: Write inhibition at 0.1 µM of Cc1cc(CC(O)c2ccncc2)c2[nH]c3c(c2c1)CN(C)CC3 (stereo not shown) ; system used: human recombinant adrenergic α2A receptor (Homo sapiens)
Result: 7

Task: Write inhibition at 0.1 µM of `Cc1cc(-c2ccncc2)c2c(c1)c1c(n2C)CCN(C)C1` ; system used: human recombinant adrenergic α2A receptor (Homo sapiens)
Result: 0

Task: Write inhibition at 0.1 µM of Cc1cc2c3c(c1)c1c(n3CC(C)(c3ccncc3)OC(C)C2)CCN(C)C1 (stereo not shown) ; system used: human recombinant adrenergic α2A receptor (Homo sapiens)
Result: 40

Task: Write inhibition at 0.1 µM of `Cc1cc(-c2ccc(F)cc2)c2c(c1)c1c(n2C)CCN(C)C1` ; system used: human recombinant adrenergic α2A receptor (Homo sapiens)
Result: 10

Task: Write inhibition at 0.1 µM of Cc1cc2c3c(c1)c1c(n3CC(C)(c3ccc(C)nc3)OC(C)C2)CCN(C)C1 (stereo not shown) ; system used: human recombinant adrenergic α2A receptor (Homo sapiens)
Result: -1

Task: Write inhibition at 0.1 µM of `C/C(=C\c1cc(C)cc2c3c(n(C)c12)CCN(C)C3)c1ccncc1` ; system used: human recombinant adrenergic α2A receptor (Homo sapiens)
Result: 4
